// values below are reported Minimal inhibitory concentration (MIC)
system: Candida albicans C1-2; experiment: In vitro antifungal activity, microbroth dilution MIC; type: cell-based; conditions: C. albicans C1-2, RPMI-1640, 35° C., 4 to 48 hours
Lab book: enter the figure in µg/mL, no units written.

Solved cases (6 shown):
compound	Minimal inhibitory concentration (MIC) / µg/mL
Cc1cccc(C=C(F)OCC2COC(Cn3ccnc3)(c3ccc(F)cc3F)O2)c1 (mixture of isomers) [Ex. 37]	25.0
Cc1ccc(C(=C(F)OCC2COC(Cn3ccnc3)(c3ccc(F)cc3F)O2)C(F)(F)F)cc1 (mixture of isomers) [Ex. 54]	25.0
FC(OCC1COC(Cn2ccnc2)(c2ccc(F)cc2F)O1)=C(c1ccc2c(c1)OCO2)C(F)(F)F (mixture of isomers) [Ex. 62]	12.5
FC(OCC1COC(Cn2ccnc2)(c2ccc(Cl)cc2Cl)O1)=C(c1ccc(F)cc1)C(F)(F)F (mixture of isomers) [Ex. 33]	12.5
FC(=Cc1ccccc1)OCC1COC(Cn2ccnc2)(c2ccc(F)cc2F)O1 (mixture of isomers) [Ex. 36]	50.0
Cc1ccc(C(=C(F)OCC2COC(Cn3ccnc3)(c3ccc(F)cc3F)O2)C(F)(F)F)cc1C (mixture of isomers) [Ex. 56]	12.5

Turning to the following compound.
Provide measured Minimal inhibitory concentration (MIC) value, entry: FC(OCC1COC(Cn2ccnc2)(c2ccc(F)cc2F)O1)=C(c1ccccc1)C(F)(F)F (mixture of isomers) [Ex. 52]
12.5

====

system: Candida albicans A. 10231; experiment: In vitro antifungal activity, microbroth dilution MIC; format: cell-based; details: C. albicans A. 10231, RPMI-1640, 35° C., 4 to 48 hours
Source text: […]
Items are presented alongside their recorded Minimal inhibitory concentration (MIC).
For clarity, give the value followed by its unit.

Consider the following illustrative entries.
compound	measurement target	outcome measure	data value
FC(OCC1COC(Cn2ccnc2)(c2ccc(Cl)cc2Cl)O1)=C(c1cc(Cl)cc(Cl)c1)C(F)(F)F (mixture of isomers)	Candida albicans A. 10231	Minimal inhibitory concentration (MIC)	6.25 µg/mL
CC(C)Oc1cccc(C=C(F)OCC2COC(Cn3ccnc3)(c3ccc(Cl)cc3Cl)O2)c1 (stereo not shown)	Candida albicans A. 10231	Minimal inhibitory concentration (MIC)	25.0 µg/mL
Cc1ccc(C=C(F)OCC2COC(Cn3ccnc3)(c3ccc(F)cc3F)O2)cc1C (mixture of isomers)	Candida albicans A. 10231	Minimal inhibitory concentration (MIC)	12.5 µg/mL

Give the reported Minimal inhibitory concentration (MIC) for this compound. Cc1cc(C)cc(C=C(F)OCC2COC(Cn3ccnc3)(c3ccc(Cl)cc3Cl)O2)c1 (stereo not shown)
6.25 µg/mL

====

system: Candida albicans A. 10231; assay: In vitro antifungal activity, microbroth dilution MIC; assay type: cell-based; conditions: C. albicans A. 10231, RPMI-1640, 35° C., 4 to 48 hours
outcome measure: Minimal inhibitory concentration (MIC)

compound	Minimal inhibitory concentration (MIC)
FC(OCC1COC(Cn2ccnc2)(c2ccc(Cl)cc2Cl)O1)=C(c1cccs1)C(F)(F)F (mixture of isomers)	25.0 mg/L
FC(OCC1COC(Cn2ccnc2)(c2ccc(Cl)cc2Cl)O1)=C(c1ccc(Oc2ccccc2)cc1)C(F)(F)F (stereo not shown)	>100 mg/L
FC(=Cc1ccc(Cl)cc1)OCC1COC(Cn2ccnc2)(c2ccc(F)cc2F)O1 (mixture of isomers)	12.5 mg/L

Specify measured Minimal inhibitory concentration (MIC) for FC(OCC1COC(Cn2ccnc2)(c2ccc(F)cc2F)O1)=C(c1cc(Cl)cc(Cl)c1)C(F)(F)F (mixture of isomers) .
12.5 mg/L

Measured values drawn from patent US6376497B1 for this set.
